biological target: ALPK1; assay: pooled miR-30 sensor sort-seq; sequence = guide strand; settings: shRNA; note: reference of the scale not given here
Please provide measured sensor-assay potency score (higher = more potent) for the entries that follow.
Numbers only.

INSERT INTO results (primarysequence, measured) VALUES
  ('TAACTTCTTGAGACAGAGCTTC', -0.293),
  ('TTGCAGAGGAACTAAACCCTGA', -0.0397),
  ('TTCATTACATTCCACATGCTGG', -0.496),
  ('TTGTTCATAGAGTCTCTTGTTA', 0.0334),
  ('AAATCGACCACAACATCTCTAT', -0.634),
  ('TTGAACTTGTAAATGTTCCTTC', 0.693),
  ('TTGATGAAGATGATGAACCCAA', 0.0893);

Please find the next sequence below.
Prompt: I'd like to know its sensor-assay potency score (higher = more potent). The sequence in question is TCTGTTTTCACCACTTTCGTGT
Response: 0.311

* * *

target: PFKFB4; test: pooled miR-30 sensor sort-seq; sequence = guide strand; settings: shRNA
Please provide measured sensor-assay potency score (higher = more potent) for the entries that follow.
Give bare numbers.

INSERT INTO assay_data (primarysequence, measured) VALUES
  ('TATCGAGTCAGCTTCTTGGAGA', -0.636);

Batch lookup, sensor-assay potency score (higher = more potent) per entry.
1. TTTCACACTTCACAAAGCCAAC
2. TTCACTGTGAGAGCAGGCCTGA
3. TTGATATAGGACAGGTCCCTAT
4. TTTTGGTCACTGATGAACTGGG

Response:
1: -1.28; 2: -0.707; 3: -1.32; 4: -0.438

* * *

Please provide measured sensor-assay potency score (higher = more potent) for the entries that follow.
biological target: PCDHGA11; assay: pooled miR-30 sensor sort-seq; sequence = guide strand; settings: shRNA
One number for each entry.

Batch lookup, sensor-assay potency score (higher = more potent) per entry.
1. TATCTCCACTTCGTCCTCCTGG
2. TATATTGTAGCTCTGGACCAAC
3. ACAGTGATCAACATCGTCGTGG
4. TTTAGAAGAGCAATCACTGTAC

Response:
[-0.661, -0.9, -0.0572, 0.556]

* * *

target: CMYA5; experiment: pooled miR-30 sensor sort-seq; sequence = guide strand; conditions: shRNA
Rule: sensor-assay potency score (higher = more potent) of -0.7 or more gives y; anything lower gives n.

Examples from the recorded data:
INSERT INTO assay_data (primarysequence, labelclass) VALUES
  ('TTCACTTTCTTCCTGATCGATT', 'y'),
  ('TGAATCAATGACATCTTCCTTG', 'y'),
  ('TTACTTCTTGATCATCTTGTGG', 'n');

Prompt: Does TTTTTCTTCACTGTGATCTGGC have a reported sensor-assay potency score (higher = more potent) of at least -0.7?
Response: y

Prompt: Does TTAACATCTGGTCACTTCTTGC have a reported sensor-assay potency score (higher = more potent) of at least -0.7?
Response: n

* * *

Please provide measured sensor-assay potency score (higher = more potent) for the entries that follow.
target: FAM194A; test: pooled miR-30 sensor sort-seq; sequence = guide strand; conditions: shRNA
Give bare numbers.

INSERT INTO results (primarysequence, measured) VALUES
  ('TTATTGTCTTCATTATATCTTG', -0.455);

Batch lookup, sensor-assay potency score (higher = more potent) per entry.
1. TTTTCTTTTGCCTTGAGTCTGT
2. TTAGTTTCGACTCTTCTGGATT
3. TTATATCTTGCTTTATACCAGA
4. TAGAAATCTTGTCTTGTTCTAA
5. TTTAGTTTCGACTCTTCTGGAT

Response:
0.354
-1.18
-0.69
0.351
0.0335

// data source = the OligoGym collection
